- Organism: Mus musculus
- measurement.notes: ED 50 value against aconitine-induced arrhythmias in mice; IA is Inactive
- Assay type: functional, organism-based
Activity calls are given as the source filed them. The rule behind the calls is not given here.
test.readout: ED50

Observe how each entry below is paired with its result.
CNC1CC[C@H]2[C@@H]3CCc4cc(OCC(O)CNC(C)C)ccc4[C@H]3CC[C@]12C (stereo partly drawn)	inactive
CNC1[C@H](O)C[C@H]2[C@@H]3CCc4cc(OCC(O)CNC(C)C)ccc4[C@H]3CC[C@]12C (stereo partly drawn)	inactive
CC(C)NCC(O)COc1ccc2c(c1)CC[C@@H]1[C@@H]2CC[C@]2(C)C(N(C)C)[C@H](O)C[C@@H]12 (stereo partly drawn)	inactive
CN(C)C1CC[C@H]2[C@@H]3CCc4cc(OCC(O)CNC(C)(C)C)ccc4[C@H]3CC[C@]12C (stereo partly drawn)	inactive
CNC1CC[C@H]2[C@@H]3CCc4cc(OCC(O)CNC(C)(C)C)ccc4[C@H]3CC[C@]12C (stereo partly drawn)	inactive
CNC1[C@H](O)C[C@H]2[C@@H]3CCc4cc(OCC(O)CNC(C)(C)C)ccc4[C@H]3CC[C@]12C (stereo partly drawn)	inactive
CC(C)NCC(O)COc1ccc2c(c1)CC[C@@H]1[C@@H]2CC[C@]2(C)C(N(C)C)CC[C@@H]12 (stereo partly drawn)	inactive

Now for another entry.
[Q] Would you mind telling me what ED50 value was observed for CN(C)C1[C@H](O)C[C@H]2[C@@H]3CCc4cc(OCC(O)CNC(C)(C)C)ccc4[C@H]3CC[C@]12C (stereo partly drawn) ?
[A] inactive
